# System: NCI-H522
# measurementDescription: relative viability (nuclei count vs DMSO), 5 days (fraction); higher = more cells survive
# measurementConditions: first compound 20 µM
observable: relative viability
No unit in the answer, only the number.

Guide cases for relative viability, answers given:
[[record]]
compound = "Cc1csc(=NC2CCCCC2)n1/N=C/c1ccc(O)c(O)c1O [MIM1] + N=C(N)NC(=N)NCCc1ccccc1 [Phenformin] (partner 250 µM)"
observedvalue = 0.571

[[record]]
compound = "Cc1csc(=NC2CCCCC2)n1/N=C/c1ccc(O)c(O)c1O [MIM1] + NC(=O)Nc1cc(-c2cccc(F)c2)sc1C(=O)N[C@H]1CCCNC1 [AZD7762] (partner 0.2 µM)"
observedvalue = 0.511

[[record]]
compound = "Cc1csc(=NC2CCCCC2)n1/N=C/c1ccc(O)c(O)c1O [MIM1] + COc1cccc2cc(-c3nc([C@H]4CC[C@H](C(=O)O)CC4)n4ncnc(N)c34)[nH]c12 [OSI-027] (partner 0.5 µM)"
observedvalue = 0.67


Below: the item to evaluate.
I am curious: what relative viability value has been reported for Cc1csc(=NC2CCCCC2)n1/N=C/c1ccc(O)c(O)c1O [MIM1] + CC(=O)c1c(C)c2cnc(Nc3ccc(N4CCNCC4)cn3)nc2n(C2CCCC2)c1=O [Palbociclib] (partner 0.5 µM) ?
0.61

###

# Test system: NCI-H322M
# measurementDescription: relative viability (nuclei count vs DMSO), 5 days (fraction); higher = more cells survive
# measurementConditions: first compound 0.2 µM
Recorded relative viability, one value per entry.
No unit in the answer, only the number.

Guide cases for relative viability, answers given:
[[record]]
molecule = "CN1CCN(CCOc2cc(OC3CCOCC3)c3c(Nc4c(Cl)ccc5c4OCO5)ncnc3c2)CC1 [Saracatinib] + Nc1ncn([C@H]2C[C@H](O)[C@@H](CO)O2)c(=O)n1 [Decitabine] (partner 2 µM)"
observable = "relative viability"
observedvalue = 0.473

[[record]]
molecule = "CCNC(=O)c1noc(-c2cc(C(C)C)c(O)cc2O)c1-c1ccc(CN2CCOCC2)cc1 [Luminespib] + CC(=O)Nc1cccc(-n2c(=O)n(C3CC3)c(=O)c3c(Nc4ccc(I)cc4F)n(C)c(=O)c(C)c32)c1 [Trametinib] (partner 0.02 µM)"
observable = "relative viability"
observedvalue = 0.407


I am curious: what relative viability value has been reported for Cc1csc(=NC2CCCCC2)n1/N=C/c1ccc(O)c(O)c1O [MIM1] + COc1cccc2cc(-c3nc([C@H]4CC[C@H](C(=O)O)CC4)n4ncnc(N)c34)[nH]c12 [OSI-027] (partner 0.5 µM) ?
0.593

###

Recorded relative viability, one value per entry.
# Test system: NCI-H2405
# measurementDescription: relative viability (nuclei count vs DMSO), 5 days (fraction); higher = more cells survive
# measurementConditions: first compound 0.006325 µM
No unit in the answer, only the number.

Guide cases for relative viability, answers given:
[[record]]
compound = "CCNC(=O)c1noc(-c2cc(C(C)C)c(O)cc2O)c1-c1ccc(CN2CCOCC2)cc1 [Luminespib] + CS(=O)(=O)CCNCc1ccc(-c2ccc3ncnc(Nc4ccc(OCc5cccc(F)c5)c(Cl)c4)c3c2)o1 [Lapatinib] (partner 2 µM)"
observable = "relative viability"
observedvalue = 0.876

[[record]]
compound = "CCNC(=O)c1noc(-c2cc(C(C)C)c(O)cc2O)c1-c1ccc(CN2CCOCC2)cc1 [Luminespib] + COc1cc2c(Oc3ccc(NC(=O)C4(C(=O)Nc5ccc(F)cc5)CC4)cc3F)ccnc2cc1OCCCN1CCOCC1 [Foretinib] (partner 0.25 µM)"
observable = "relative viability"
observedvalue = 0.852


I am curious: what relative viability value has been reported for CCNC(=O)c1noc(-c2cc(C(C)C)c(O)cc2O)c1-c1ccc(CN2CCOCC2)cc1 [Luminespib] + COc1cccc2cc(-c3nc([C@H]4CC[C@H](C(=O)O)CC4)n4ncnc(N)c34)[nH]c12 [OSI-027] (partner 0.5 µM) ?
0.545

###

# Tested on: NCI-H1915
# measurementDescription: relative viability (nuclei count vs DMSO), 5 days (fraction); higher = more cells survive
# measurementConditions: first compound 0.06325 µM
Recorded relative viability, one value per entry.

Guide cases for relative viability, answers given:
[[record]]
molecule = "CCNC(=O)c1noc(-c2cc(C(C)C)c(O)cc2O)c1-c1ccc(CN2CCOCC2)cc1 [Luminespib] + CS(=O)(=O)N1CCN(Cc2cc3nc(-c4cccc5[nH]ncc45)nc(N4CCOCC4)c3s2)CC1 [Pictilisib] (partner 1 µM)"
observedvalue = 0.827

[[record]]
molecule = "CCNC(=O)c1noc(-c2cc(C(C)C)c(O)cc2O)c1-c1ccc(CN2CCOCC2)cc1 [Luminespib] + O=C(CCCCCCC(=O)Nc1ccccc1)NO [Vorinostat] (partner 1 µM)"
observedvalue = 0.477

[[record]]
molecule = "CCNC(=O)c1noc(-c2cc(C(C)C)c(O)cc2O)c1-c1ccc(CN2CCOCC2)cc1 [Luminespib] + Cc1nc(Nc2ncc(C(=O)Nc3c(C)cccc3Cl)s2)cc(N2CCN(CCO)CC2)n1 [Dasatinib] (partner 0.075 µM)"
observedvalue = 0.236

[[record]]
molecule = "CCNC(=O)c1noc(-c2cc(C(C)C)c(O)cc2O)c1-c1ccc(CN2CCOCC2)cc1 [Luminespib] + NC(=O)Nc1cc(-c2cccc(F)c2)sc1C(=O)N[C@H]1CCCNC1 [AZD7762] (partner 0.2 µM)"
observedvalue = 0.473


Below: the item to evaluate.
I am curious: what relative viability value has been reported for CCNC(=O)c1noc(-c2cc(C(C)C)c(O)cc2O)c1-c1ccc(CN2CCOCC2)cc1 [Luminespib] + CC(=O)c1c(C)c2cnc(Nc3ccc(N4CCNCC4)cn3)nc2n(C2CCCC2)c1=O [Palbociclib] (partner 0.5 µM) ?
0.318

###

# System: A-427
# measurementDescription: relative viability (nuclei count vs DMSO), 5 days (fraction); higher = more cells survive
# measurementConditions: first compound 0.8 µM
Recorded relative viability, one value per entry.
No unit in the answer, only the number.

[[record]]
compound = "Nc1cccc2c1CN(C1CCC(=O)NC1=O)C2=O (stereo not drawn) [Lenalidomide] + Cc1nc(Nc2ncc(C(=O)Nc3c(C)cccc3Cl)s2)cc(N2CCN(CCO)CC2)n1 [Dasatinib] (partner 0.075 µM)"
targetundertest = "A-427"
observedvalue = 0.851

[[record]]
compound = "Nc1cccc2c1CN(C1CCC(=O)NC1=O)C2=O (stereo not drawn) [Lenalidomide] + CCNC(=O)c1noc(-c2cc(C(C)C)c(O)cc2O)c1-c1ccc(CN2CCOCC2)cc1 [Luminespib] (partner 0.01 µM)"
targetundertest = "A-427"
observedvalue = 1


Below: the item to evaluate.
I am curious: what relative viability value has been reported for Nc1cccc2c1CN(C1CCC(=O)NC1=O)C2=O (stereo not drawn) [Lenalidomide] + CC(=O)c1c(C)c2cnc(Nc3ccc(N4CCNCC4)cn3)nc2n(C2CCCC2)c1=O [Palbociclib] (partner 0.5 µM) ?
0.49

###

# Tested on: EBC-1
# measurementDescription: relative viability (nuclei count vs DMSO), 5 days (fraction); higher = more cells survive
# measurementConditions: first compound 0.006325 µM
Recorded relative viability, one value per entry.
No unit in the answer, only the number.

[[record]]
compound = "CCNC(=O)c1noc(-c2cc(C(C)C)c(O)cc2O)c1-c1ccc(CN2CCOCC2)cc1 [Luminespib] + CC1(C)CCC(c2ccc(Cl)cc2)=C(CN2CCN(c3ccc(C(=O)NS(=O)(=O)c4ccc(N[C@H](CCN5CCOCC5)CSc5ccccc5)c(S(=O)(=O)C(F)(F)F)c4)cc3)CC2)C1 [Navitoclax] (partner 0.5 µM)"
targetundertest = "EBC-1"
observable = "relative viability"
observedvalue = 0.488


I am curious: what relative viability value has been reported for CCNC(=O)c1noc(-c2cc(C(C)C)c(O)cc2O)c1-c1ccc(CN2CCOCC2)cc1 [Luminespib] + CC(C)C[C@H](NC(=O)[C@H](Cc1ccccc1)NC(=O)c1cnccn1)B(O)O [Bortezomib] (partner 0.002 µM) ?
0.541

Thanks! And CCNC(=O)c1noc(-c2cc(C(C)C)c(O)cc2O)c1-c1ccc(CN2CCOCC2)cc1 [Luminespib] + Cc1nc(NC(=O)N2CCC[C@H]2C(N)=O)sc1-c1ccnc(C(C)(C)C(F)(F)F)c1 [Alpelisib] (partner 2 µM) ?
0.741

Thanks! And CCNC(=O)c1noc(-c2cc(C(C)C)c(O)cc2O)c1-c1ccc(CN2CCOCC2)cc1 [Luminespib] + CS(=O)(=O)CCNCc1ccc(-c2ccc3ncnc(Nc4ccc(OCc5cccc(F)c5)c(Cl)c4)c3c2)o1 [Lapatinib] (partner 2 µM) ?
0.223

###

# System: NCI-H2009
# measurementDescription: relative viability (nuclei count vs DMSO), 5 days (fraction); higher = more cells survive
# measurementConditions: first compound 2 µM
observable: relative viability

Guide cases for relative viability, answers given:
[[record]]
compound = "Cc1csc(=NC2CCCCC2)n1/N=C/c1ccc(O)c(O)c1O [MIM1] + O=C(c1cc(Cc2n[nH]c(=O)c3ccccc23)ccc1F)N1CCN(C(=O)C2CC2)CC1 [Olaparib] (partner 8 µM)"
targetundertest = "NCI-H2009"
observable = "relative viability"
observedvalue = 0.723

[[record]]
compound = "Cc1csc(=NC2CCCCC2)n1/N=C/c1ccc(O)c(O)c1O [MIM1] + C[C@@H](Oc1cc(-c2cnn(C3CCNCC3)c2)cnc1N)c1c(Cl)ccc(F)c1Cl [Crizotinib] (partner 1 µM)"
targetundertest = "NCI-H2009"
observable = "relative viability"
observedvalue = 1.1


Below: the item to evaluate.
I am curious: what relative viability value has been reported for CN1CCN(CCOc2cc(OC3CCOCC3)c3c(Nc4c(Cl)ccc5c4OCO5)ncnc3c2)CC1 [Saracatinib] + Cc1nc(NC(=O)N2CCC[C@H]2C(N)=O)sc1-c1ccnc(C(C)(C)C(F)(F)F)c1 [Alpelisib] (partner 2 µM) ?
0.961
